- TARGET UNDER TEST: human TGR5 (Homo sapiens)
- Sequence (Q8TDU6 whole entry): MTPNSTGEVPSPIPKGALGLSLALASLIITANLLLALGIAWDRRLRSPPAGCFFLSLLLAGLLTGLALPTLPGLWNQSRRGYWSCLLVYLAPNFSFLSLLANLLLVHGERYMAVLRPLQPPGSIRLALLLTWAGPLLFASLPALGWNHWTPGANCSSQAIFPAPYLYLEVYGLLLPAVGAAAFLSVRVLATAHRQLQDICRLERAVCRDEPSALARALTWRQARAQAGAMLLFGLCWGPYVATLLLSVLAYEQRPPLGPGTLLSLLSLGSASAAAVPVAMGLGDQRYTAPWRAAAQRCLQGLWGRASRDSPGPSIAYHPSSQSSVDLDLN
- ASSAY REMARKS: cAMP production assay in HEK293-TGR5 cells
- MEASUREMENT CONDITIONS: HEK293 cells stably expressing human TGR5; 30 minutes stimulation; LANCE cAMP TR-FRET; read-out: cAMP Production in 293-TGR5 Cells EC50
PROPERTY MEASURED: EC50

As a guide, the following entries are already answered.
COMPOUND: N#Cc1ccc2cc(CNCCc3ccc(Br)cc3)c(-c3ccsc3)nc2c1 [Example 136]
TARGET UNDER TEST: human TGR5 (Homo sapiens)
READING: < 10 µM

COMPOUND: COc1ccc2cc(CNCc3ccc(C(F)(F)F)cc3)c(-c3cccnc3)nc2c1 [Example 6]
TARGET UNDER TEST: human TGR5 (Homo sapiens)
READING: < 10 µM

COMPOUND: COc1ccc2cc(CNc3ccc(Cl)cc3)c(-c3ccsc3)nc2c1 [Example 69]
TARGET UNDER TEST: human TGR5 (Homo sapiens)
READING: < 10 µM

COMPOUND: Oc1ccc2cc(CNCCc3ccc(Cl)cc3)c(-c3ccoc3)nc2c1 [Example 118]
TARGET UNDER TEST: human TGR5 (Homo sapiens)
READING: > 10 µM

COMPOUND: Oc1ccc2cc(CCNCc3ccc(C(F)(F)F)cc3)c(-c3ccsc3)nc2c1 [Example 107]
TARGET UNDER TEST: human TGR5 (Homo sapiens)
READING: > 10 µM

# query: EC50 of entry COc1ccc2cc(CNCCc3ccc(F)cc3)c(-c3cccnc3)nc2c1 [Example 8]
< 10 µM

# query: EC50 of entry Oc1cc2nc(-c3ccsc3)c(CNCCc3ccc(Br)cc3)cc2cc1F [Example 147]
> 10 µM

# query: EC50 of entry COc1ccc2cc(CNCCc3ccc(Cl)cc3)c(-c3cnn(C)c3)nc2c1 [Example 21]
< 10 µM

====

Listing: pEC50 of selected compounds
- TARGET UNDER TEST: UniProt Q8TDU6
- ASSAY REMARKS: cAMP production assay in HEK293-TGR5 cells
- MEASUREMENT CONDITIONS: HEK293 cells stably expressing human TGR5; 30 minutes stimulation; LANCE cAMP TR-FRET; read-out: cAMP Production in 293-TGR5 Cells EC50
pEC50: −log10 of the molar value.

SMILES REPRESENTATION: COc1ccc2cc(CNCCc3ccccn3)c(-c3ccncc3)nc2c1
pEC50: < 5.00

SMILES REPRESENTATION: COc1ccc2cc(CNCCc3ccc(Cl)cc3)c(-c3ccoc3)nc2c1
pEC50: < 5.00

SMILES REPRESENTATION: COc1ccc2cc(CN(CCc3ccc(Cl)cc3)S(C)(=O)=O)c(-c3ccsc3)nc2c1
pEC50: < 5.00

SMILES REPRESENTATION: CNC(=O)c1ccc2cc(CNCCc3ccc(Br)cc3)c(-c3ccsc3)nc2c1
pEC50: > 5.00

SMILES REPRESENTATION: COc1ccc2cc(CNCc3ccc([N+](=O)[O-])cc3)c(-c3ccsc3)nc2c1
pEC50: > 5.00

# query: pEC50 of entry `COc1cc2cc(CNCCc3ccc(Br)cc3)c(-c3ccsc3)nc2cc1C`
> 5.00

# query: pEC50 of entry `COc1ccc2cc(CNCCCc3ccccc3)c(-c3ccncc3)nc2c1`
> 5.00
